tested on: Mus musculus; test: Analgesic activity against acetic acid-induced abdominal constriction in Swiss albino mouse at 15 mg/kg, po after 20 mins by writhing test relative to acetylsalicylic acid; assay type: functional, Abdomen
Please provide measured Activity for the entries that follow.
The response must be a number in % with no trailing unit.

Query string: Reported Activity, compound Nc1n[nH]c2nc3nc4c(c(-c5ccccc5)c3c(=O)n12)CCCC4 : ____
Result string: 110.44

Query string: Same read-out for Cc1cc(C)n(-c2nc3nc4c(c(-c5ccccc5)c3c(=O)[nH]2)CCCC4)n1 ?
Result string: 114.51

Query string: Quick one: Cc1n[nH]c2nc3nc4c(c(-c5ccccc5)c3c(=O)n12)CCCC4
Result string: 11.2

Query string: Follow-up item: O=c1c2c(-c3ccccc3)c3c(nc2nc2n(-c4ccccc4)nc(-c4ccccc4)n12)CCCC3
Result string: 8.89

Query string: Then O=c1[nH]c(N/N=C\c2ccccc2)nc2nc3c(c(-c4ccccc4)c12)CCCC3 ?
Result string: 67.51

Query string: Also, O=c1c2c(-c3ccccc3)c3c(nc2nc2[nH]nnn12)CCCC3 please.
Result string: 27.07

Query string: And the next one, NNc1nc2nc3c(c(-c4ccccc4)c2c(=O)[nH]1)CCCC3 ?
Result string: 102.32

Query string: Please give the result for O=c1[nH]c(=S)[nH]c2nc3c(c(-c4ccccc4)c12)CCCC3 too.
Result string: 68.47

Query string: Next compound: Nn1c(-c2ccccc2)cn2c(=O)c3c(-c4ccccc4)c4c(nc3nc12)CCCC4
Result string: 71.76

Query string: What do you have for CC(=O)NNc1nc2nc3c(c(-c4ccccc4)c2c(=O)[nH]1)CCCC3 ?
Result string: 116.83
